# TARGET OF ASSAY: T1, human melanocortin-4 receptor (human, UniProt P32245 1-332)
# T1 construct: whole, on cells; functional assay: HEK293-T-REx-MC4-R cells induced with 0.1 or 10 ng/mL doxycycline; also called hMC4-R; MC4-R
# T1 sequence (P32245 whole entry): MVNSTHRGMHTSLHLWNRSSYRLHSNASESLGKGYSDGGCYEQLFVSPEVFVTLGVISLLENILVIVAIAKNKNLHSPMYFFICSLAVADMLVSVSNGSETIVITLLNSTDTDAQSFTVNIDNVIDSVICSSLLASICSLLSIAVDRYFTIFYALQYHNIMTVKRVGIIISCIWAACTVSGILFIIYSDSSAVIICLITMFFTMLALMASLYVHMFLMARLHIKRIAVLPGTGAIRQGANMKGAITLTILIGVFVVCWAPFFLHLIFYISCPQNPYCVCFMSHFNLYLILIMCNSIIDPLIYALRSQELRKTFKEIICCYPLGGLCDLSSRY
# ASSAY DETAILS: [I125]-NDP-α-MSH competition, hMC4-R HEK-293 membranes
# Method: A competitive inhibition binding assay was performed for exemplified peptides according to the invention using membrane homogenates prepared from HEK-293 cells that express recombinant hMC4-R, hMC3-R, or hMC5-R, and from B-16 mouse melanoma cells (containing endogenous MC1-R). […] Filters were dried and counted in a gamma counter for bound radioactivity. […] Ki values for test peptides of the present invention were determined using Graph-Pad Prism® curve-fitting software.
Positions of bridges follow the written chain, without caps; N, C: chain ends. Non-standard residues stand in square brackets, D forms with d. dPhe(4-CN) = N#Cc1ccc(C[C@@H](N)C(=O)O)cc1
pKi values, listed per item
Reminder that pKi means the negative base-10 logarithm of the concentration expressed in mol/L.

// pKi lookup, key: Ac-RKQ[dPhe(4-CN)]RWD-NH2 (lactam 2-7; SMILES CC(=O)N[C@@H](CCCNC(=N)N)C(=O)N[C@H]1CCCCNC(=O)C[C@@H](C(N)=O)NC(=O)[C@H](Cc2c[nH]c3ccccc23)NC(=O)[C@H](CCCNC(=N)N)NC(=O)[C@@H](Cc2ccc(C#N)cc2)NC(=O)[C@H](CCC(N)=O)NC1=O, also called No. 93) [Ac-Arg-cyclo(Lys-Gln-D-Phe(4-CN)-Arg-Trp-Asp)-NH2]
9.00

Further cases:
// pKi lookup, key: XDQXRWK (N-terminal Ac; D-Arg 1; D-Phe(3-Cl) 4; lactam Asp 2-Lys 7; C-terminal NH2, also called No. 80) [Ac-D-Arg-cyclo(Asp-Gln-D-Phe(3-Cl)-Arg-Trp-Lys)-NH2]
8.15
